- Tested on: DU-145
- Assay explanation: NCI tumour cell line growth inhibition, 48 h
Activity calls are given as the source filed them. Cut-off read from the data, not from the text of the source: active = GI50 up to about 1.1 µM and inactive = higher.
# valid calls are label 1 = active, label 0 = inactive; nothing else

Compound	Label class
O=c1cc(CNC2CC3CCC2C3)[nH]c(=O)[nH]1 (stereo not drawn)	label 0
O=[Se](O)O	label 0
CC(C)(C)[Si](C)(C)OCC1OC(n2cnc3c(N)ncnc32)C(O[Si](C)(C)C(C)(C)C)C1O[Si](C)(C)C(C)(C)C (stereo not drawn)	label 0
CN1CCN(/C(N)=C(\C#N)C(=O)Nc2ccccc2)CC1	label 0
Cc1ccc(S(=O)(=O)N2CCC[C@@H]2C(=O)O[C@@H]2CCC3CC=CC32)cc1 (stereo partly drawn)	label 0

Exercise: Write down the call the test reported for this compound. Item: COc1ccc(S(=O)(=O)Nc2ccc(-c3csc(N4C(=O)/C(=C/C=C\c5ccccc5)N=C4c4ccccc4)n3)cc2)cc1Cl
Key: label 0

Exercise: Write down the call the test reported for this compound. Item: CCOC(=O)Cc1nc2sc(S(N)(=O)=O)nn2c1Br
Key: label 0

Exercise: Write down the call the test reported for this compound. Item: N=C(N)NCCCC(NC(=O)c1cccc2c(=O)c3ccccc3[nH]c12)C(=O)O (stereo not drawn)
Key: label 0

Exercise: Write down the call the test reported for this compound. Item: O=C(/C=C/C(Cl)(Cl)Cl)Nc1ccc(Cl)cc1
Key: label 0

Exercise: Write down the call the test reported for this compound. Item: CC[C@]12CCCN3CCc4c(n(c5ccccc45)C(=O)C1)[C@@H]32
Key: label 0

Exercise: Write down the call the test reported for this compound. Item: CN(C)C(=O)C1CCN(Cc2c[nH]c3ccccc23)CC1
Key: label 0

Exercise: Write down the call the test reported for this compound. Item: [O-]/[N+](=N\c1ccccc1CO)c1ccccc1CO
Key: label 0

Exercise: Write down the call the test reported for this compound. Item: CC(NS(C)(=O)=O)c1ccccc1 (stereo not drawn)
Key: label 0

====

Reported GI50 values follow for various molecules
- Test system: MDA-MB-435
- Assay explanation: NCI tumour cell line growth inhibition, 48 h
Calls of active or inactive are those of the source. No stated cut-off is given here; in the data, active = GI50 up to about 1.1 µM and inactive = higher.

Kindly note the recorded GI50 for O=C(OCC(OC(=O)c1ccccc1)C1CC(C(O)C2CCCCC2)C(=O)O1)c1ccccc1 (stereo unspecified) , which is > 100 µM (inactive)

Kindly note the recorded GI50 for CC1(c2ccccc2)N=c2[nH]cnc2=C(C(N)=O)N1 (stereo unspecified) , which is > 100 µM (inactive)

====

Reported GI50 values follow for various compounds
- Tested on: LOX IMVI
- Assay explanation: NCI tumour cell line growth inhibition, 48 h
The source made the active and inactive calls. Cut-off read from the data, not from the text of the source: active = GI50 up to about 1.1 µM and inactive = higher. Where a SMILES comes first, the peptide text is derived from it. The star is where a group is joined. Boc = CC(C)(C)OC(=O)*; OBn = c1ccc(CO*)cc1

Examples from the recorded data:
Compound	GI50
N#CCCN(CCC#N)c1ccc(/C=C2\SC(=S)NC2=O)cc1Br	23.1 µM (inactive)
COC(=O)/C=C(\C(=O)OC)c1c2c3c(cc(OC)c(OC)c3c3ccccc13)CCN2C	49.5 µM (inactive)

Kindly note the recorded GI50 for CCCSc1ccc2[nH]c(/N=C/c3ccccc3)cc2c1 , which is 17.4 µM (inactive)

Kindly note the recorded GI50 for CC(C)CC(NC(=O)C(Cc1ccccc1)NC(=O)C(Cc1ccccc1)NC(=O)OC(C)(C)C)C(=O)OCc1ccccc1 (stereo not drawn) (Boc-Phe-Phe-Leu-OBn; configuration not given here) , which is > 100 µM (inactive)

Kindly note the recorded GI50 for O=C1CCC(=O)C1=NNc1cc(Cl)cc(Cl)c1 , which is > 100 µM (inactive)

Kindly note the recorded GI50 for COc1ccc(OC)c([N+](=O)[O-])c1-c1nc2sc(C)cn2c1/C=N/N=C(N)N , which is 70.1 µM (inactive)

Kindly note the recorded GI50 for Clc1nc(NCCc2ccccc2)c2ncn(-c3ccccc3)c2n1 , which is 21.3 µM (inactive)

Kindly note the recorded GI50 for CC(C)(C)C1CC[C@H](O)[C@H]([C@H](O)CC2CC(=O)N(c3ccccc3)C(=O)C2)C1 (some centres undefined) , which is > 100 µM (inactive)

Kindly note the recorded GI50 for CC1CC[P+](c2ccccc2)(c2ccccc2)CC1 , which is 51.3 µM (inactive)

Just for reference, ChEMBL document CHEMBL1201862 is where these values come from.
